measurement_description: ATG_AP_2_CIS: Attagene CIS-FACTORIAL HepG2 Assay for human Activator Protein 2 (AP-2) (AID 2282932)
run_parameters: HepG2 AP-2 cis-reporter, Attagene transcription factor profiling; actives raise or lower the signal
Active and inactive are the calls of the source. How the source made its calls: active means hit-call score of the fitted dose curve at least 0.9, where 1 is the maximum; inactive means score below 0.9.
Hi! Could you answer with just one of these? active, inactive

Reference set (3 entries):
| compound | category_label |
| --- | --- |
| CCCCC(CC)COC(=O)c1ccccc1O (stereo not drawn) | inactive |
| CCOC(=O)Cc1cccc2ccccc12 | inactive |
| CCOC(=O)[C@H](C)O | inactive |

Give the logged outcome of this assay for the following compound: COC(F)(F)C(F)(C(F)(F)F)C(F)(F)F inactive

For Cc1cccc(OCCOc2cccc(C)c2)c1 then? inactive

For CN1C(=O)N(C)C(O)C1O (stereo not drawn) then? inactive

For O=C(O)C(c1ccc(Cl)cc1)c1ccc(Cl)cc1 then? inactive

For O=C1CCCCCCCCCCC(=O)OCCO1 then? inactive

For CC(=O)OCC(=O)[C@@]12N=C(C)O[C@@H]1C[C@H]1[C@@H]3CCC4=CC(=O)C=C[C@]4(C)[C@H]3[C@@H](O)C[C@@]12C then? inactive

For CCCCC/C=C\C/C=C\CCCCCCCC(=O)OC then? inactive

For C=C[Si](C)(C)O[Si](C)(C)C=C then? inactive

----------
measurement_description: TOX21_p53_BLA_p4_viability: Viability Assessment in the Tox21 HCT-116 p53 Agonism Beta-lactamase Assay, Phase 4 (AID 2283597);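 further: hits lower the luminescence signal meaning cytotoxicity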
Results filed as inconclusive are left out. Active and inactive are the calls of the source. Rule for the calls: active = hit-call score of the fitted dose curve at least 0.9, where 1 is the maximum; inconclusive = response in the unintended direction; inactive = score below 0.9.

| compound | outcome |
| --- | --- |
| CCN(Cc1cccc(S(=O)(=O)O)c1)c1ccc(C(=C2C=CC(=[N+](CC)Cc3cccc(S(=O)(=O)[O-])c3)C=C2)c2ccccc2)cc1 | inactive |
| CC(C)=CCCC(C)C=O (stereo not drawn) | inactive |
| COC(=O)c1sccc1S(N)(=O)=O | inactive |

----------
measurement_description: ATG_NRF2_ARE_CIS: Attagene CIS-FACTORIAL HepG2 Assay for human Nuclear Factor Erythroid 2 Related Factor 2 (NFR2) response to Antioxidant Response Elements (ARE) (AID 2282992)
run_parameters: HepG2 Attagene ARE/NRF2 reporter, transcription factor activity; actives raise or lower the signal
Activity calls are given as the source filed them. Rule for the calls: active = hit-call score of the fitted dose curve at least 0.9, where 1 is the maximum; inactive = score below 0.9.
Hi! Could you answer with just one of these? active, inactive

| compound | category_label |
| --- | --- |
| CCCC(C)CCC(C)=O (stereo not drawn) | inactive |
| CCCCCC/C=C\CCCCCCCC(=O)O | active |
| O=C(O)CCCC[C@@H]1SC[C@@H]2NC(=O)N[C@@H]21 | inactive |
| ON(Cc1ccccc1)Cc1ccccc1 | inactive |
| C=CC(C)(CCC=C(C)C)OC(=O)C(C)C (stereo not drawn) | active |
| CC(=O)Oc1ccc(C)cc1 | active |
| CC(CC=O)CCCC(C)(C)O (stereo not drawn) | inactive |
| O=c1n(CCO)c(=O)n(CCO)c(=O)n1CCO | inactive |

Okay, next one:
Give the logged outcome of this assay for the following compound: OCCN(CCO)c1ccccc1 inactive

----------
measurement_description: ATG_ERE_CIS: Attagene CIS-FACTORIAL HepG2 Assay for Estrogen Response Element (ERE) (AID 2282940)
run_parameters: HepG2 ERE cis-reporter, Attagene RNA transcript; actives raise or lower the signal
The source made the active and inactive calls. Rule for the calls: active = hit-call score of the fitted dose curve at least 0.9, where 1 is the maximum; inactive = score below 0.9.
Hi! Could you answer with just one of these? YES for active, NO for inactive

Reference set (2 entries):
| compound | category_label |
| --- | --- |
| COC(=O)/C=C\C(=O)O | NO |
| Nc1ccc(N=Nc2ccccc2)c(N)n1 | NO |

Okay, next one:
Give the logged outcome of this assay for the following compound: C=C[Si](C)(C)O[Si](C)(C)C=C NO

----------
measurement_description: ATG_M_06_TRANS: Attagene TRANS-FACTORIAL HepG2 Assay for M06 Transcription Factor (Internal Marker) (AID 2282983);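 further: reporter transcript level by RT-PCR then capillary electrophoresis fluorescence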
run_parameters: HepG2 Attagene TRANS M06 internal marker reporter
Results filed as inconclusive are left out. The source made the active and inactive calls. Rule for the calls: active = hit-call score of the fitted dose curve at least 0.9, where 1 is the maximum; inconclusive = response in the unintended direction; inactive = score below 0.9.
Hi! Could you answer with just one of these? class 1 (active), class 0 (inactive)

Reference set (5 entries):
| compound | category_label |
| --- | --- |
| OCCc1ccncc1 | class 0 |
| O=[N+]([O-])c1ccc(CO)cc1 | class 0 |
| c1cc(N(CC2CO2)CC2CO2)ccc1OCC1CO1 (centres undefined) | class 0 |
| CC(C)CCCC(C)CC=O (centres undefined) | class 0 |
| CCCNC(=O)NS(=O)(=O)c1ccc(Cl)cc1 | class 0 |

Give the logged outcome of this assay for the following compound: c1ccc(-c2ccccn2)nc1 class 0

----------
measurement_description: ATG_E_Box_CIS: Attagene CIS-FACTORIAL HepG2 Assay for human Enhancer Box (E-box) (AID 2282936)
run_parameters: HepG2 E-box cis-reporter transcription, actives raise or lower the signal
Active and inactive are the calls of the source. Rule for the calls: active = hit-call score of the fitted dose curve at least 0.9, where 1 is the maximum; inactive = score below 0.9.
measured_property: outcome

Reference set, count: 5
| compound | outcome |
| --- | --- |
| COc1ccc([C@@H]2CC(=O)c3c(O)cc(O[C@@H]4O[C@H](CO[C@@H]5O[C@@H](C)[C@H](O)[C@@H](O)[C@H]5O)[C@@H](O)[C@H](O)[C@H]4O)cc3O2)cc1OC | inactive |
| CCCCCCCCc1ccc(Nc2ccc(CCCCCCCC)cc2)cc1 | inactive |
| O=c1[nH]c(=O)c2[nH]c(=O)[nH]c2[nH]1 | inactive |
| O=Cc1ccc(CO)o1 | inactive |
| Cc1ccc2oc(=O)ccc2c1 | inactive |

Data request, read-out outcome, for CCOC(=O)[C@H](C)O inactive

For Cc1cccc(C(=O)O)c1 then? inactive

For Nc1cccc(C(F)(F)F)c1 then? inactive

For O=C(O)CC(C(=O)O)C(CC(=O)O)C(=O)O (stereo not drawn) then? inactive

For Cc1ccc(C2OC[C@@H]3OC(c4ccc(C)cc4)O[C@H]([C@H](O)CO)[C@@H]3O2)cc1 (stereo partly drawn) then? inactive

For C=CC(C)(CCC=C(C)C)OC(=O)C(C)C (stereo not drawn) then? inactive

For CCCC(C)CCC(C)=O (stereo not drawn) then? inactive

For CCCCCCC(O)CO (stereo not drawn) then? inactive

----------
measurement_description: ATG_VDRE_CIS: Attagene CIS-FACTORIAL HepG2 Assay for human Vitamin D Receptor Element (VDRE) (AID 2282968)
run_parameters: HepG2 VDRE cis-reporter transcription, actives raise or lower the signal
The source made the active and inactive calls. How the source made its calls: active means hit-call score of the fitted dose curve at least 0.9, where 1 is the maximum; inactive means score below 0.9.
measured_property: outcome

Reference set, count: 5
| structure_notation | outcome |
| --- | --- |
| CC(=O)OC(C)C | inactive |
| O=c1c2ccccc2oc2ccccc12 | inactive |
| CCCOCCOCCOCCO | inactive |
| CCCOC(=O)CCCCC(=O)OCCC | inactive |
| O=C1C=CC(=O)O1 | inactive |

Data request, read-out outcome, for CCCCCCCC(C)=O inactive

For CC(=O)Nc1ccc2c(c1)Cc1cc(NC(C)=O)ccc1-2 then? inactive

For CCC(CC)C(=O)O then? inactive

For Nc1ccc2cc3ccccc3cc2c1 then? inactive

----------
measurement_description: ATG_AP_1_CIS: Attagene CIS-FACTORIAL HepG2 Assay for human Activator Protein 1 (AP-1) (AID 2282931)
run_parameters: HepG2 Attagene cis-factorial AP-1 reporter mRNA; actives raise or lower the signal
Calls of active or inactive are those of the source. How the source made its calls: active means hit-call score of the fitted dose curve at least 0.9, where 1 is the maximum; inactive means score below 0.9.
measured_property: AC50

Reference set, count: 5
| compound | result |
| --- | --- |
| C=C(C)c1cccc(C(C)(C)N=C=O)c1 | inactive |
| CCCCCCCC[N+](C)(CCCCCCCC)CCCCCCCC | inactive |
| CN(C)CCCN(C)C | inactive |
| Cc1ccc2oc(=O)ccc2c1 | inactive |
| CN(C)c1ccc(N=Nc2ccccc2C(=O)O)cc1 | 37.7 µM (active) |

Data request, read-out AC50, for Nc1ccc(N)c(Cl)c1 18.1 µM (active)

For CCO[Si](CCCN=C=O)(OCC)OCC then? inactive

For Cc1cc(=O)n(-c2ccccc2)n1C then? inactive

For C[Si](C)(C)O[Si](O)(O)O then? inactive

For COC(=O)c1cc(Cl)ccc1[N+](=O)[O-] then? inactive

For CC=CC(=O)N(CC)c1ccccc1C then? inactive

For O=c1cc(-c2ccccc2)oc2ccccc12 then? inactive

----------
measurement_description: ATG_EGR_CIS: Attagene CIS-FACTORIAL HepG2 Assay for human Early Growth Response 1 (EGR1) (AID 2282938)
run_parameters: HepG2 Attagene CIS-FACTORIAL EGR reporter mRNA; actives raise or lower the signal
Calls of active or inactive are those of the source. How the source made its calls: active means hit-call score of the fitted dose curve at least 0.9, where 1 is the maximum; inactive means score below 0.9.
Hi! Could you answer with just one of these? TRUE (active), FALSE (inactive)

Reference set (5 entries):
| molecule | category_label |
| --- | --- |
| CC(C)=CCC/C(C)=C\C#N | FALSE |
| CCCCCCCCCCOS(=O)(=O)O | FALSE |
| Cc1ccc([N+](=O)[O-])cc1S(=O)(=O)O | FALSE |
| CCCCCCC(O)CO (stereo not drawn) | FALSE |
| CC(C)c1ccc2c(c1)CC[C@H]1[C@](C)(CN)CCC[C@]21C | TRUE |

Give the logged outcome of this assay for the following molecule: CCCCCC/C=C/C=O FALSE

For O=C(O)CCCC[C@@H]1SC[C@@H]2NC(=O)N[C@@H]21 then? FALSE
